Here the recorded EC50 for [Ca2+] is given for each entry.
Target: T1, FPR1 (UniProt P21462 1-350, limits assumed)
T1 sequence (looked up): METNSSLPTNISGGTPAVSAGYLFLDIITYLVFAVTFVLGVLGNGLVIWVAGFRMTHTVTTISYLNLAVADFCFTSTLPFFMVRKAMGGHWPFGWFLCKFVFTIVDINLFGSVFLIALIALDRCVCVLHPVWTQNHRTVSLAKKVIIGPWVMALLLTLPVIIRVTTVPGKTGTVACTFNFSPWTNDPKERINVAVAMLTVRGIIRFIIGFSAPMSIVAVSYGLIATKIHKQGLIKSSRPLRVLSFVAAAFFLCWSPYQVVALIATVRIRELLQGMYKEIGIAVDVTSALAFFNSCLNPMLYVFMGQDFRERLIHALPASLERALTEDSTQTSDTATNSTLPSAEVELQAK
Test: cell-based or functional assay

// solved cases for EC50 for [Ca2+] follow
{"binder": "IKFWMM (HELM PEPTIDE1{I.K.F.W.M.[dM].[am]}$$$$V2.0; N-terminus assumed; SMILES CC[C@H](C)[C@H](N)C(=O)N[C@@H](CCCCN)C(=O)N[C@@H](Cc1ccccc1)C(=O)N[C@@H](Cc1c[nH]c2ccccc12)C(=O)N[C@@H](CCSC)C(=O)N[C@H](CCSC)C(N)=O) [peptide of SEQ ID NO 129]", "EC50 for [Ca2+]": "> 10 µM"}
{"binder": "HMKYYYM (HELM PEPTIDE1{[CCCC(=O)[*:2]].H.M.K.Y.Y.Y.[dM].[am]}$$$$V2.0; SMILES CCCC(=O)N[C@@H](Cc1c[nH]cn1)C(=O)N[C@@H](CCSC)C(=O)N[C@@H](CCCCN)C(=O)N[C@@H](Cc1ccc(O)cc1)C(=O)N[C@@H](Cc1ccc(O)cc1)C(=O)N[C@@H](Cc1ccc(O)cc1)C(=O)N[C@H](CCSC)C(N)=O) [peptide of SEQ ID NO 127]", "EC50 for [Ca2+]": "> 10 µM"}

State the recorded EC50 for [Ca2+] for this entry: RMRYWYM (HELM PEPTIDE1{R.M.R.Y.W.Y.[dM].[am]}$$$$V2.0; N-terminus assumed; SMILES CSCC[C@H](NC(=O)[C@@H](N)CCCNC(=N)N)C(=O)N[C@@H](CCCNC(=N)N)C(=O)N[C@@H](Cc1ccc(O)cc1)C(=O)N[C@@H](Cc1c[nH]c2ccccc12)C(=O)N[C@@H](Cc1ccc(O)cc1)C(=O)N[C@H](CCSC)C(N)=O) [peptide of SEQ ID NO 81]
> 10 µM

Sourced from patent US20250361268A1
